VALUE_TYPE: melting point

Would you please look over these solved cases?
STRUCTURE_STRING: CNC(=O)c1c(Nc2ccc(F)c(Cl)c2)nc2c(OC)cccn2c1=O
melting point: 218 °C (dec.)
//
STRUCTURE_STRING: COc1cccn2c(=O)c(Br)c(Nc3ccc4ncccc4c3)nc12
melting point: 248 to 249 °C
//
STRUCTURE_STRING: Cn1cnc2ccc(Nc3nc4c(F)cccn4c(=O)c3CO)cc21
melting point: 209 °C (dec.)

Task item: Supply measured melting point of `COc1cccn2c(=O)c(CO)c(Nc3ccc(F)c(F)c3)nc12` in your reply.
Reply: 231 °C (dec.)

Task item: Supply measured melting point of `COC(=O)c1ccc(Nc2nc3c(OC)cccn3c(=O)c2CO)nc1` in your reply.
Reply: 231 to 232 °C (dec.)

----------
Test system: M. tuberculosis H37Rv-GFP
TEST_PROTOCOL: in vitro
EXPERIMENTAL_CONTEXT: Mycobacterium tuberculosis
VALUE_TYPE: selectivity ratio

Task item: Supply measured selectivity ratio of Cc1cccn2c(=O)c(C=O)c(Nc3cccc(Cl)c3)nc12 [compound 133] in your reply.
Reply: > 50

----------
Test system: M. tuberculosis H37Rv-GFP inside Raw264.7 macrophages
TEST_PROTOCOL: in vitro
EXPERIMENTAL_CONTEXT: mouse
VALUE_TYPE: selectivity ratio

Task item: Supply measured selectivity ratio of `Cc1cccn2c(=O)c(C=O)c(Nc3cccc(Cl)c3)nc12` in your reply.
Reply: > 50
